- experimental-parameters: in ethanol, 308.15 K
result-type: solubility (mole fraction)
Write the number on its own, no unit after it.

For the molecule `O=c1[nH]cc(F)c(=O)[nH]1` , give its reported solubility (mole fraction). 0.0034

###

- experimental-parameters: in water, 298.15 K
result-type: solubility (mole fraction)

Specify reported solubility (mole fraction) for the molecule shown: `O=c1[nH]cc(F)c(=O)[nH]1` 0.00176

###

- experimental-parameters: in water, 308.15 K
result-type: solubility (mole fraction)
No unit in the answer, please; the number alone is enough.

Return reported solubility (mole fraction). Input compound: `O=c1[nH]cc(F)c(=O)[nH]1` 0.00214

###

- experimental-parameters: in water, 303.15 K
result-type: solubility (mole fraction)
Answer with the value's number alone.

For the molecule `O=c1[nH]cc(F)c(=O)[nH]1` , give its reported solubility (mole fraction). 0.00195

###

- experimental-parameters: in water, 293.15 K
result-type: solubility (mole fraction)
Number, no unit, nothing else.

Please report the measured solubility (mole fraction) for `O=c1[nH]cc(F)c(=O)[nH]1` 0.00155

###

- experimental-parameters: in ethanol, 298.15 K
result-type: solubility (mole fraction)

Provide solubility (mole fraction) value for the following molecule: `O=c1[nH]cc(F)c(=O)[nH]1` 0.00277

###

- experimental-parameters: in ethanol, 318.15 K
result-type: solubility (mole fraction)
Output: the number by itself.

Given `O=c1[nH]cc(F)c(=O)[nH]1` , respond with its solubility (mole fraction). 0.00411

###

- experimental-parameters: in water, 318.15 K
result-type: solubility (mole fraction)
I'd appreciate a reply containing only the number, no unit.

For the molecule `O=c1[nH]cc(F)c(=O)[nH]1` , report solubility (mole fraction). 0.00278

###

- experimental-parameters: in water, 323.15 K
result-type: solubility (mole fraction)
Please reply with the value in numeric form only.

Give the reported value of solubility (mole fraction) for this record: `O=c1[nH]cc(F)c(=O)[nH]1` 0.00312

###

- experimental-parameters: in ethanol, 303.15 K
result-type: solubility (mole fraction)
Give only the figure.

Return reported solubility (mole fraction). Input molecule: `O=c1[nH]cc(F)c(=O)[nH]1` 0.00307
